Where these numbers come from: paper PMC7265341

Tested target: CDK11A/Cyclin L2 (Homo sapiens)
Assay comment: NanoBRET live-cell target engagement, CDK11A-NanoLuc/Cyclin L2 in HEK-293
Type: binding
Test context: CDK11a/L2; 10µM
Listing: Inhibition at 10µM (%) Replicate 2 of selected compounds
Field format: number, assumed %, no unit text.

- Compound: "CC(C)c1cnn2c(NCc3ccccc3)cc(N[C@@H](CO)[C@H](O)CO)nc12"
  Unit of measure: "%"
  Inhibition at 10µM (%) Replicate 2: 18.5

Ask: Which Inhibition at 10µM (%) Replicate 2 value belongs to O=C(Nc1c[nH]nc1-c1ccccn1)c1nn(C2CCNCC2)cc1Cl ?
Result: 5.6

Ask: Which Inhibition at 10µM (%) Replicate 2 value belongs to CCC(CO)Nc1nc(Nc2cccc(-c3ccccn3)c2)c2ncn(C(C)C)c2n1.Cl.O [(R) - DRF053] ?
Result: 33.3

Ask: Which Inhibition at 10µM (%) Replicate 2 value belongs to CNC1CCN(C(=O)c2ccc(Nc3ncc(F)c(-c4cnc(C)n4C(C)C)n3)cc2)C1 (stereo not shown) ?
Result: 90.1

###

Tested target: CDK12/Cyclin K (Homo sapiens, UniProt Q9NYV4)
Sequence (Q9NYV4 1-1481 isoform Q9NYV4-2): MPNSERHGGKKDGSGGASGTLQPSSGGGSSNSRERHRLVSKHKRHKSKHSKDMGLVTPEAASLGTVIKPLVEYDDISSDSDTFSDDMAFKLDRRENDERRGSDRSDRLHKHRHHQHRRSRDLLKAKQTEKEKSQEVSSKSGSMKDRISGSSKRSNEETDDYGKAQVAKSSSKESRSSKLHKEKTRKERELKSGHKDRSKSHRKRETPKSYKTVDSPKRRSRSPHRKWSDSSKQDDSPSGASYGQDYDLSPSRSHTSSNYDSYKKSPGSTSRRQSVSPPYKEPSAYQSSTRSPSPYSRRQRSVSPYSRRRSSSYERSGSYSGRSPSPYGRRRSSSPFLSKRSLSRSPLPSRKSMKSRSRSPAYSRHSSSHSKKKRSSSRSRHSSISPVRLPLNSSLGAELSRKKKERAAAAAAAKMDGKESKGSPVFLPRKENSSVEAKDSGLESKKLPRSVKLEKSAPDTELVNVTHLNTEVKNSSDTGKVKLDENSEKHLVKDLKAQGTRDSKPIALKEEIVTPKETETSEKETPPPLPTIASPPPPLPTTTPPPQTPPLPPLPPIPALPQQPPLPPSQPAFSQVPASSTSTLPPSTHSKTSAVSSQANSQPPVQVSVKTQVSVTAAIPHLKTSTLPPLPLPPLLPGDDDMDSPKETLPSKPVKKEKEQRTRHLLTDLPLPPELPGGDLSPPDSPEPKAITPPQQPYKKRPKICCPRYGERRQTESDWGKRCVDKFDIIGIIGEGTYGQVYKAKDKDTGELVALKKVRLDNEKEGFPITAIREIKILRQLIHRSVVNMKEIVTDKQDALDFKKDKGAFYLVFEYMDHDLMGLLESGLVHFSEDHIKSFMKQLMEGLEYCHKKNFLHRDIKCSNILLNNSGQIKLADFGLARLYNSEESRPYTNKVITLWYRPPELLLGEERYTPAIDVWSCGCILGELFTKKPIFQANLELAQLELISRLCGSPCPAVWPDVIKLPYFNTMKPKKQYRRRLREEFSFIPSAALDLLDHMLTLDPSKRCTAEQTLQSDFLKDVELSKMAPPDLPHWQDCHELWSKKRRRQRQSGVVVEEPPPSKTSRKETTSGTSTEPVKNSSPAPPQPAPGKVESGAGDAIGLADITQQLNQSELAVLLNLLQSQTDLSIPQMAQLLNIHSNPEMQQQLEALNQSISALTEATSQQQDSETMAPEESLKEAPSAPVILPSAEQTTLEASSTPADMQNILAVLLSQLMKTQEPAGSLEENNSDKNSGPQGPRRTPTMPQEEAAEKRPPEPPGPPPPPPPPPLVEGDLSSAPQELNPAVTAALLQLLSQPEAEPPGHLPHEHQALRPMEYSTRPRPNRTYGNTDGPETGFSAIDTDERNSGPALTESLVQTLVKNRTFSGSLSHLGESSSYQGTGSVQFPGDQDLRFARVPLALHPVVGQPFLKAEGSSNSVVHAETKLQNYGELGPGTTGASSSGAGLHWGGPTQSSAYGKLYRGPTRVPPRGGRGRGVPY
Sequence (O75909 whole entry partner): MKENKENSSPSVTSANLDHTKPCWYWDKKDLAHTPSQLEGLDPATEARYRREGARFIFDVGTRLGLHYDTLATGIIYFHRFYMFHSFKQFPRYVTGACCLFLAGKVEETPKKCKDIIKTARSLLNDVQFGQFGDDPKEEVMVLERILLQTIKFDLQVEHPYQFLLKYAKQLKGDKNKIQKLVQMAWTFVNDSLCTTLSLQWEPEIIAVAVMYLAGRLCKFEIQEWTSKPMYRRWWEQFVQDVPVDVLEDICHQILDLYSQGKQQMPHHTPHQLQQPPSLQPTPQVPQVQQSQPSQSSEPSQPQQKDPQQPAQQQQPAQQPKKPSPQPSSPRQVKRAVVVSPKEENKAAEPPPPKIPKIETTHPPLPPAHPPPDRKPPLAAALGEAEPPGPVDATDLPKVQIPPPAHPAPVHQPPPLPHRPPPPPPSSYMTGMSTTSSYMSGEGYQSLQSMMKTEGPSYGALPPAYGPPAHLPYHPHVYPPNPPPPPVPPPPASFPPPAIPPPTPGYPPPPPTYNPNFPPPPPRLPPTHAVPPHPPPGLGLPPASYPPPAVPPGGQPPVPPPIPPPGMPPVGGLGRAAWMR
Assay comment: NanoBRET live-cell target engagement, CDK12-NanoLuc/Cyclin K in HEK-293
Type: binding
Test context: CDK12/K; n=2 average to 2 significant figures; read-out: IC50 (nM) Average*
Measurement name: IC50
The answer consists of two parts: a number and, after it, its unit.

Ask: API: value(readout= IC50, system= CDK12/Cyclin K (Homo sapiens, UniProt Q9NYV4), query= CC(C)c1cnn2c(NCc3ccccc3)cc(N[C@@H](CO)[C@H](O)CO)nc12 )
Result: 350 nM

###

Listing: inhibition at 10 µM of selected compounds
Tested target: CDK14/Cyclin Y (Homo sapiens)
Assay comment: NanoBRET live-cell target engagement, CDK14-NanoLuc/Cyclin Y in HEK-293
Type: binding
Test context: CDK14/Y; 10µM; read-out: Inhibition at 10µM (%) Replicate 2
Field format: number, assumed %, no unit text.

Ask: API: value(readout= inhibition at 10 µM, system= CDK14/Cyclin Y (Homo sapiens), query= CCCCOc1c(C(=O)c2c(F)cc(C)cc2F)c[nH]c2nncc1-2 [BMS-265246] )
Result: 18.8

Ask: API: value(readout= inhibition at 10 µM, system= CDK14/Cyclin Y (Homo sapiens), query= COc1cc(F)ccc1-c1ncnc(Nc2cccc(C[S@](C)(=N)=O)c2)n1 [Atuveciclib] )
Result: -2.5

Ask: API: value(readout= inhibition at 10 µM, system= CDK14/Cyclin Y (Homo sapiens), query= Cc1ncc(-c2ccnc(Nc3ccc(S(C)(=O)=O)cc3)n2)n1C(C)C [AZD5438] )
Result: 71

Ask: API: value(readout= inhibition at 10 µM, system= CDK14/Cyclin Y (Homo sapiens), query= COc1cc(F)ccc1-c1cc(Nc2cc(CS(C)(=N)=O)ccn2)ncc1F (stereo not shown) [BAY-1251152] )
Result: 22.4

###

Tested target: CDK14/Cyclin Y (Homo sapiens, UniProt O94921)
Sequence (O94921 whole entry): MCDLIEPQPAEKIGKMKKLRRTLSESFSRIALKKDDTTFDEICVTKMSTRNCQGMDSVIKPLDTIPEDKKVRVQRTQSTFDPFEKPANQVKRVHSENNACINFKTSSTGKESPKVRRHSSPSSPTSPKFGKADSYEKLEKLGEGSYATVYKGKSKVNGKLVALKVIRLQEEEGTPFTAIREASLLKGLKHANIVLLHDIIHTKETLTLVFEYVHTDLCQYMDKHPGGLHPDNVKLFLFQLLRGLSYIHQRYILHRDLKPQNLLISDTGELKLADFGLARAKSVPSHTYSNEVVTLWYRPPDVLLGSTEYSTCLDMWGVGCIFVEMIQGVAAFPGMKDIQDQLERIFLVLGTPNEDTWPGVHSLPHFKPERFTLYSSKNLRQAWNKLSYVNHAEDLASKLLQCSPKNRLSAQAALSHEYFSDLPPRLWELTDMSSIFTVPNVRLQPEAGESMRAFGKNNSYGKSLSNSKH
Sequence (Q8ND76 whole entry partner): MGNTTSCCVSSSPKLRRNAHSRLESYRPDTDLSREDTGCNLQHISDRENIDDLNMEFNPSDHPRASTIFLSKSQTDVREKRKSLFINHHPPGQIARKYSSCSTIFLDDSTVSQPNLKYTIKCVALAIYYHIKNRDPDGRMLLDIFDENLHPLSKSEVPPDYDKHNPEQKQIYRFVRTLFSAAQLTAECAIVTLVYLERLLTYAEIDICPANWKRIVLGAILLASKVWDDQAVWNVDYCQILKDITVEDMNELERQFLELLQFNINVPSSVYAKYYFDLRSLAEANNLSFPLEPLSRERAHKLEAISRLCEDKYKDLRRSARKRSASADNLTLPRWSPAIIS
Assay comment: NanoBRET live-cell target engagement, CDK14-NanoLuc/Cyclin Y in HEK-293
Assay type: binding
Test context: CDK14/Y; experiment 1; read-out: Inhibition at 10µM (%)
inhibition at 10 µM vs 60%: at or above is met, below is not met.

- Compound: "N#CCNC(=O)c1ccc(-c2ccnc(Nc3ccc(N4CCOCC4)cc3)n2)cc1"
  Class label: "not met"

Ask: Hi, just wondering whether Cn1cc(-c2ccc(-c3cncc(Cl)c3N3CCC4(CCNC4=O)CC3)cc2)cn1 shows inhibition at 10 µM of 60% or higher.
Result: not met

Ask: Hi, just wondering whether CC(C)c1cnn2c(NCc3ccccc3)cc(NC[C@H]3CCNC[C@@H]3O)nc12 shows inhibition at 10 µM of 60% or higher.
Result: not met

Ask: Hi, just wondering whether NS(=O)(=O)c1ccc(Nc2nc(OCC3CCCCC3)c3nc[nH]c3n2)cc1 shows inhibition at 10 µM of 60% or higher.
Result: not met

###

Listing: IC50 of selected molecules
Tested target: CDK18/Cyclin Y (Homo sapiens)
Sequence (Q07002 whole entry): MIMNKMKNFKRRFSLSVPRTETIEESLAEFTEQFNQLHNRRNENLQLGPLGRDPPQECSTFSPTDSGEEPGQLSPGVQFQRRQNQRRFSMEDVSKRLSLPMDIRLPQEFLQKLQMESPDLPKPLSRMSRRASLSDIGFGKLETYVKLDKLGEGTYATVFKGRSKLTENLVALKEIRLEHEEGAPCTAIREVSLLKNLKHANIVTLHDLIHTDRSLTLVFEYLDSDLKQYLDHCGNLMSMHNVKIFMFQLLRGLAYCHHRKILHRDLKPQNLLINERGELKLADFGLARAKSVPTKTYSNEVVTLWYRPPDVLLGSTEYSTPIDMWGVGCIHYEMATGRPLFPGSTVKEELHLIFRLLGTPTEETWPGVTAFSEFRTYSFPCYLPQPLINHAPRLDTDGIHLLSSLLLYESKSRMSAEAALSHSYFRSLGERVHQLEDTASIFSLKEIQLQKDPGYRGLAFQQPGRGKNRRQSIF
Sequence (Q8ND76 whole entry partner): as the sequence (Q8ND76 whole entry partner) above
Assay comment: NanoBRET live-cell target engagement, CDK18-NanoLuc/Cyclin Y in HEK-293
Format: binding
Test context: CDK18/Y; experiment 3; read-out: IC50
Field format: number, assumed nM, no unit text.

- Molecule: "CN1CCN(c2ccc(Nc3ncc4cc(C#N)c(=O)n(C5CCCC5)c4n3)cc2)CC1 [ON123300]"
  IC50 [nM]: 150

Ask: Which IC50 value belongs to CN1CCN(Cc2ccc(NC(=O)Nc3ccc(Oc4ccnc(N)n4)cc3)cc2C(F)(F)F)CC1 [K03861] ?
Result: 610

Ask: Which IC50 value belongs to COc1ccc(F)cc1-c1cc(NC(=O)C2CCCNC2)ncc1Cl (stereo not shown) [CDK inhibitor 2] ?
Result: 112

Ask: Which IC50 value belongs to CC(C)c1cnn2c(NCc3ccccc3-n3cccn3)nc(OC3CCCNC3)nc12 (stereo not shown) [LDC4297] ?
Result: 262

###

Tested target: CDK19/Cyclin C (Homo sapiens, UniProt Q9BWU1)
Assay comment: NanoBRET live-cell target engagement, NanoLuc-CDK19/Cyclin C in HEK-293
Test context: IC50, [Probe 1] 1 µM (plot: [Probe 3]); n=1
Measurement name: pIC50
Would you please state pIC50, meaning minus log10 of the concentration in mol/L, as a bare number?

Ask: Which pIC50 value belongs to CCN1CCN(Cc2ccc(NC(=O)Nc3ccc(Oc4cc(NC)ncn4)cc3)cc2C(F)(F)F)CC1 [AST-487] ?
Result: 8.00

###

Tested target: CDK4/Cyclin D1 (Homo sapiens, UniProt P11802)
Sequence (P11802 whole entry): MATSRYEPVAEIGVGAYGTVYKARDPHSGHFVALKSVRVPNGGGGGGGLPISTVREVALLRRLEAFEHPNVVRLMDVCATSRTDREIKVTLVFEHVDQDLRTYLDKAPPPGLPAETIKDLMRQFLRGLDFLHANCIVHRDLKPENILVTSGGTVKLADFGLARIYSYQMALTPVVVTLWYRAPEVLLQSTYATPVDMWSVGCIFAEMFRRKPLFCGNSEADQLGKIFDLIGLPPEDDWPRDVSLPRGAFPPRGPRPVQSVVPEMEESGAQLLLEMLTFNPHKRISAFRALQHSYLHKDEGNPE
Sequence (P24385 whole entry partner): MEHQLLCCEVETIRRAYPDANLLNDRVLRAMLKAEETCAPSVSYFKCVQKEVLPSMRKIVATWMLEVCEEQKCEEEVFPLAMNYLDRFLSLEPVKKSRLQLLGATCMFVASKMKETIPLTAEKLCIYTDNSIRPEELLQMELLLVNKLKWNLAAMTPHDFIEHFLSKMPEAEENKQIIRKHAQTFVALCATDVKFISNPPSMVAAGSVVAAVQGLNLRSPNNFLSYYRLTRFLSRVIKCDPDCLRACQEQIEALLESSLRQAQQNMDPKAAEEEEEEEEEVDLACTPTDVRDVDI
Assay comment: NanoBRET live-cell target engagement, NanoLuc-CDK4/Cyclin D1 in HEK-293
Type: binding
Test context: 10µM; average of experiments
Listing: CDK4/D1 Inhibition at 10µM (%) of selected molecules

- Molecule: "Cc1c(Br)c(Br)c2c3c1nc(N1CCNCC1)n3CCC2.Cl [SEL 120-34A]"
  Tested target: "CDK4/Cyclin D1 (Homo sapiens, UniProt P11802)"
  CDK4/D1 Inhibition at 10µM (%): "37.4%"

Ask: Which CDK4/D1 Inhibition at 10µM (%) value belongs to O=C1NC(=NCc2cccs2)S/C1=C\c1ccc2ncccc2c1 [RO-3306] ?
Result: -19.5%

Ask: Which CDK4/D1 Inhibition at 10µM (%) value belongs to O=C1NCCc2[nH]c(-c3ccncc3)cc21 [PHA-767491] ?
Result: 21.3%

Ask: Which CDK4/D1 Inhibition at 10µM (%) value belongs to CN(C)C/C=C/C(=O)Nc1ccc(C(=O)Nc2cccc(Nc3ncc(Cl)c(-c4c[nH]c5ccccc45)n3)c2)cc1 [THZ1] ?
Result: 53.8%

###

Listing: IC50 of selected molecules
Tested target: CDK19/Cyclin C (Homo sapiens, UniProt Q9BWU1)
Assay comment: NanoBRET live-cell target engagement, NanoLuc-CDK19/Cyclin C in HEK-293
Test context: IC50 (nM) Replicate 2, CDK19/C
Field format: number, assumed nM, no unit text.

- Line notation: "CCN1CCN(Cc2ccc(NC(=O)Nc3ccc(Oc4cc(NC)ncn4)cc3)cc2C(F)(F)F)CC1"
  Tested target: "CDK19/Cyclin C (Homo sapiens, UniProt Q9BWU1)"
  Unit of measure: "nM"
  Numeric value: 22
- Line notation: "CCCCOc1c(C(=O)c2c(F)cc(C)cc2F)c[nH]c2nncc1-2"
  Tested target: "CDK19/Cyclin C (Homo sapiens, UniProt Q9BWU1)"
  Unit of measure: "nM"
  Numeric value: 1.6

Turning now to a further record.
Ask: Which IC50 value belongs to Cc1ncc(-c2ccnc(Nc3ccc(S(C)(=O)=O)cc3)n2)n1C(C)C ?
Result: 140

###

Listing: Inhibition at 10µM (%) of selected compounds
Tested target: CDK7 (Homo sapiens, UniProt P50613)
Sequence (P50613 whole entry): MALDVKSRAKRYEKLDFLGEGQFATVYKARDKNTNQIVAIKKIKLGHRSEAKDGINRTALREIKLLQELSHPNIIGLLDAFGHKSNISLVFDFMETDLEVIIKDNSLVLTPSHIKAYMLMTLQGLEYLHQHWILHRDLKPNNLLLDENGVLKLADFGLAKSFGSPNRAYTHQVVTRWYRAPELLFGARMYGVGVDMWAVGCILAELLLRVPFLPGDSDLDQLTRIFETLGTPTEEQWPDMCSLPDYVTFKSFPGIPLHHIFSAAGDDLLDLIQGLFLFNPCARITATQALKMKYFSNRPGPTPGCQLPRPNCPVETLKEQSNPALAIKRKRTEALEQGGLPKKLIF
Assay comment: NanoBRET live-cell target engagement, NanoLuc-CDK7 in HEK-293
Format: binding
Test context: CDK7; experiment 2
Field format: number, assumed %, no unit text.

The examples below pair each entry with its known result.
- Compound: "CC(C)c1c2cc(-c3ccnc(N[C@H]4CC[C@H](NC5CCOCC5)CC4)n3)ccc2nn1C"
  Unit of measure: "%"
  Numeric value: 93.4
- Compound: "CC(C)c1cnn2c(NCc3ccccc3-n3cccn3)nc(OC3CCCNC3)nc12 (centres unmarked)"
  Unit of measure: "%"
  Numeric value: 94.2
- Compound: "CCn1cnc2c(Nc3cccc(Cl)c3)nc(N[C@@H]3CCCC[C@@H]3N)nc21 [CGP74514A]"
  Unit of measure: "%"
  Numeric value: 90.2

Ask: Which Inhibition at 10µM (%) value belongs to CS(=O)(=O)N1CCC(NC(=O)c2[nH]ncc2NC(=O)c2c(Cl)cccc2Cl)CC1 ?
Result: 89.1

Ask: Which Inhibition at 10µM (%) value belongs to CN1CCC(c2c(O)cc(O)c3c(=O)cc(-c4ccccc4Cl)oc23)C1CO (centres unmarked) ?
Result: 26.2
